test system: HIF-1a; assay: HIF-1a induction in digitonin-permeabilized human glioma cells (U87, U251); type: cell-based; conditions: 1 mM doses
test.readout: Ability to induce HIF (HIF-1a accumulation), structure-activity

O=C(O)CCCC(=O)C(=O)O [alpha-ketoadipate] : ineffectiveness
CCC(=O)C(=O)O [alpha-ketobutyrate] : ineffectiveness
